- assayed.system: GSK-3β (Homo sapiens, UniProt P49841)
- Sequence (P49841 whole entry): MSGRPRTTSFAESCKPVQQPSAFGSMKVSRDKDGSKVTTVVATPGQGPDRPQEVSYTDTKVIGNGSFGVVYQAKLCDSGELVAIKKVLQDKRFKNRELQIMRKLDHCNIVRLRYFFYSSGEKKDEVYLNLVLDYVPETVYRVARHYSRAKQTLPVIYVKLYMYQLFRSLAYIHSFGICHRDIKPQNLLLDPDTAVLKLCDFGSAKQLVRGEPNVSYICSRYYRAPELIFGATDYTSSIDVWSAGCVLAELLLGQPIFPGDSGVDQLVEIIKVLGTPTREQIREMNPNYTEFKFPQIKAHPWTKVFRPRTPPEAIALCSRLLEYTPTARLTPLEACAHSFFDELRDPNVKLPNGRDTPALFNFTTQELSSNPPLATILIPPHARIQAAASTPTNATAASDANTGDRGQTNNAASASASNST
- protocol.details: GSK-3β activity, AlphaScreen technology, determination of IC50-values
- cond: human recombinant enzyme, primed glycogen synthase substrate peptide, 10 μM ATP, 60 min at room temperature, triplicate; read-out: GSK3β (μmol)
measurement.type: log10 IC50 (log10 of the value in µM)
Use the decimal logarithm of IC50 (µM).

Study these solved cases before continuing.
- compound: "O=c1[nH]nc(-c2ccncc2)cc1-c1[nH]c2ccccc2c1C1CC1 [Example 118]"
  log10 IC50: -1.96
- compound: "COc1ccc2[nH]c(-c3cc(-c4ccncc4)n[nH]c3=O)cc2n1 [Example 116]"
  log10 IC50: -2.15
- compound: "O=c1[nH]nc(-c2ccncc2)cc1-c1cc2ccc(CNC3CC3)cc2[nH]1 [Example 87]"
  log10 IC50: -1.85

Ask: # log10 IC50 lookup, item CC(NC1CCN(C2CC2)CC1)c1ccc2cc(-c3cc(-c4ccncc4)n[nH]c3=O)[nH]c2c1 (stereo not shown) [Example 165]
Reply: -1.74

Ask: Continue with O=C(O)[C@@H]1CCCN1Cc1ccc2cc(-c3cc(-c4ccncc4)n[nH]c3=O)[nH]c2c1 [Example 74]
Reply: -2.00

Ask: Another compound: Cn1cc(-c2c(-c3cc(-c4ccncc4)n[nH]c3=O)[nH]c3ccccc23)cn1 [Example 133]
Reply: -2.15

Ask: Also check O=c1[nH]nc(-c2ccncc2)cc1-c1cc2ccc(CN3CCN(C4CC4)CC3)cc2[nH]1 [Example 65]
Reply: -2.40

Ask: Record: O=c1[nH]nc(-c2ccncc2)cc1-c1[nH]c2ccccc2c1Cl [Example 26]
Reply: -1.60

Ask: Same question, O=c1[nH]nc(-c2ccn[nH]2)cc1-c1cc2ccccc2[nH]1 [Example 147] this time
Reply: 0.30

Ask: Continue with Cc1cc(-c2cc(-c3cc4ccccc4[nH]3)c(=O)[nH]n2)cc(C)c1O [Example 6]
Reply: -0.23

Ask: What would you report for CN(Cc1ccc2cc(-c3cc(-c4ccncc4)n[nH]c3=O)[nH]c2c1)C1CCN(C2CC2)CC1 [Example 89] ?
Reply: -1.92

Ask: What do we get for O=c1[nH]nc(-c2ccncc2)cc1-c1[nH]c2ccccc2c1CN1CCOCC1 [Example 11] ?
Reply: -0.99

Ask: Moving on to the next compound: CN1CCN(Cc2ccc3cc(-c4cc(-c5cccc(O)c5)n[nH]c4=O)[nH]c3c2)CC1 [Example 156]
Reply: -1.68

Ask: Let us now turn to Cn1cc(-c2cc(-c3cc4ccccc4[nH]3)c(=O)[nH]n2)cn1 [Example 126]
Reply: 0.18

Ask: Input Cc1cc(-c2cc(-c3[nH]c4ccccc4c3-c3c[nH]c(=O)[nH]c3=O)c(=O)[nH]n2)cc(C)c1O [Example 176]
Reply: -1.11

Ask: How about this compound: Cc1cc(-c2cc(-c3cc4ncccc4[nH]3)c(=O)[nH]n2)cc(C)c1O [Example 180]
Reply: -1.74
